Molecular target: calcium-sensing receptor (CaSR) (Homo sapiens)
Sequence (P41180 20-1078): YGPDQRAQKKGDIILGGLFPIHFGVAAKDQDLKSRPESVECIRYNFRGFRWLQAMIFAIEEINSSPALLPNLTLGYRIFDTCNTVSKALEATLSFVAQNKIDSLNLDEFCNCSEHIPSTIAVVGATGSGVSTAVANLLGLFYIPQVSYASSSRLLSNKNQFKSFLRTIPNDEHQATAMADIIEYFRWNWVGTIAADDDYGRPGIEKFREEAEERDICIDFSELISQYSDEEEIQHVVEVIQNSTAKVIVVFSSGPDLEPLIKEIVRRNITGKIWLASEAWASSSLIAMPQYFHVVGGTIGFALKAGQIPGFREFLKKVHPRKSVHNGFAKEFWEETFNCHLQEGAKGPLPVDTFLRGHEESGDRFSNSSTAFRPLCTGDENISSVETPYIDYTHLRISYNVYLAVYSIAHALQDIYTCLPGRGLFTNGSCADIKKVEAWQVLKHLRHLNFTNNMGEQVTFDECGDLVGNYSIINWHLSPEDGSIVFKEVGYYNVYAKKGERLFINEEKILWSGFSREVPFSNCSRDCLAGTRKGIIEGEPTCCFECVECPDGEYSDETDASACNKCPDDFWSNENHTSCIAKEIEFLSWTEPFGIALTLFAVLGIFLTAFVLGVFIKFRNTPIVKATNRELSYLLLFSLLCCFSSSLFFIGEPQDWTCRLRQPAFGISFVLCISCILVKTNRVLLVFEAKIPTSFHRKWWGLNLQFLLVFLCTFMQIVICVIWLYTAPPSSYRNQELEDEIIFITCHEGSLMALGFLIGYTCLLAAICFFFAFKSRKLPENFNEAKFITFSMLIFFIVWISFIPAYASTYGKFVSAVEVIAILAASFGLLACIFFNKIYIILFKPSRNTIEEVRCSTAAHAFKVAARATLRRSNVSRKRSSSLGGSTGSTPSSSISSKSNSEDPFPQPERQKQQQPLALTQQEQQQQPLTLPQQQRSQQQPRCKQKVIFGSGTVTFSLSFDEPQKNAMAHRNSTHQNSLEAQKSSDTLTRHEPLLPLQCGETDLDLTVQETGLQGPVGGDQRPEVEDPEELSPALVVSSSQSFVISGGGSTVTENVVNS
Test: Cal-520 Ca2+ flux in HEK293-CaSR cells (EC50); competition with DAZ-G photo-conjugation; E837A and S170A mutants
readout_type: EC50 (µM)
Express the result in µM but write the number alone.

Lab note: molecule Cn1c(=O)c2c(ncn2C)n(C)c1=O tested on calcium-sensing receptor (CaSR) (Homo sapiens); recorded EC50 was 3.35
